FYI, the data here is from the supplement of paper PMC7125110.

B1: glmS ribozyme (parent)
chain: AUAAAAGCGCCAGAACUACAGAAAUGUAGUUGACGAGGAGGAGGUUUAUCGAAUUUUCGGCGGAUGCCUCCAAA

Variants of: B1
Test: kcat; higher = faster cleavage; RNA array
Details: with glucosamine-6-phosphate
This sample holds only a part of the variants without activity.
RECORDED ENDPOINT: log10 kcat (log10 of the value in s⁻¹)
Response schema: value (number) is log10 of kcat in units of s⁻¹.

AUAAAAGCGCCAGAACUACAGAAAUGUAGUUGACGUGGAGGAGGUUUAUGGAAUUUUCGGCGGAUGCCGCCAAA :: -3.53
AUAAAAGCGCCAGAACUACAGAAAUGUAGUUGACGAGGAGGAGGUUAAUCGAAUCUUCGGCGGAUGCCUCCAAA :: -1.70
AUAAAAGCGCCAAAACUACAGAAAUGUAGUUGACGAGGAGGAGGUUUAUCGAAUUAUCGGCGGAUGCCUCCAAA :: -3.12

Record `AUAAAAGCGCCAGAACUACAGAAAUGUAGUUGACGAGGAGGAGGUUUAAGGAAUUUUCGGCGGAUGCCUCUAAA` . Reported log10 kcat: -4.73

In plain terms, `AUAAAAGCGCAAGAACUACAGAAAUGUAGUUGACGAGGAGGAGGUUUAUCGAAUCUUCGGCGGAUGCCUCCAAA` has a documented log10 kcat of -3.88

The reported value for `AUAAAAGCGCCUGAUCUACAGAAAUGUAGUUGACGAGGAGGAGGUUUAUCGAAUUUUCGGCGGAUGCCUCCAAA` in terms of log10 kcat is -1.93

For reference, reported log10 kcat for `AUAAAAGCGCCAAAACUACAGAAAUGUAGUUGACGAGGAGGAGGUUUAUCGAAUUUUCGGCGGGUGCCUCCAAA` stands at -2.96

What the record says about `AUAAAAGCGCCAGAACUACAGAAAUGUAGUUGACGAGGAGGGGGUUUAUCGAUUUUUCGGCGGAUGCCUCCAAA` : log10 kcat is -1.47

Looking up `AUAAAAGCGCCAGACCUACAGAAAUGUAGUUGACGAGGAGGAGGUUUAUCGAAUUUUCGGCGGAUGCCUGAAAA` , I see its log10 kcat listed as -4.39

The recorded log10 kcat for `AUAAAAGCGCCAGAACUACAGAAAUGUAGUUGACGAGGAGGAGGUCUAGCGAAUUUUCGGCGGAUGCCUCCAAA` is -3.96

# log10 kcat of `AUAAAAGCGUCAGAACUACAGAAAUGUACUUGACGAGGAGGAGGUUUAUCGAAUUUUCGGCGGAUGCCUCCAAA` = -4.98

Sure, the documented log10 kcat for `AUAAAAGCGCCAGAACUACAGAAAUGUAGUUGACGAGGAGGAGGUUUAUCGAAUUUUCGGCGGAUGCUCCCAAA` is -4.06

Short answer for `AUAAAAGCGCCAGAACUACAGAAAUGUAGUUGACGAGGAGAAGGUUUAUCGAAUUUUCGGCGGAUGCCUCAAAA` : log10 kcat was -3.57

So for `AUAAAAGCGCCAGAACUACAGAAAUGUAGUUGACGAGGAGGAGGUUUAUGGAAAUUUCGGCGGAUGCCUCCAAA` , the logged log10 kcat turned out to be -4.51

Record summary for `AUAAAAGCGCCAGAACUACAGAAAUGUAGUUGACGAGGAGGAGGUAUAUCGAAUUUUCGGCGGACGCCUCCAAA` : reported log10 kcat = -3.03

Sample `AUAAAAGCGCCAGAACUACAGAAAUGUAGUUGACGAGGAGGAGGUUUAUCGAAUUUUCGGCGGGUGCCACCAAA` ; log10 kcat observed: -4.09

The variant listed as `AUAAAAGCGCCAGAACUACAGAAAUGUAGUUGACGAGGAGGAGGUUUAUCGAAUUUACGGCGGAUGCGUCCAAA` has a reported log10 kcat of -4.48

`AUAAAAGCGCCCGAACUACAGAAAUGUAGUUGACGAGGAGGAGGUUUAUCGAAUUUACGGCGGAUGCCUCCAAA` yielded log10 kcat of -3.99

Consider `AUAAAAGCGCCAGAAUUACAGAAAUGUAGUUGACGAGGAGGAGGUUAAUCGAAUUUUCGGCGGAUGCCUCCAAA` . Its measured log10 kcat is -1.52

The measured log10 kcat associated with `AUAAAAGCGCCAGAACUACAGAAAUGUAGUUGACGAGGAGGAGGUUUAUCGAAUUUUCGGCGGAAGGCUCGAAA` reads -4.65

So, `AUAAAAGCGCCUGUACUACAGAAAUGUAGUUGACGAGGAGGAGGUUUAUCGAAUUUUCGGCGGAUGCCUCCAAA` ? Its log10 kcat was -2.34

The recorded log10 kcat for `AUAAAAGCGCCAGAACUACAGAAAUGUAGUUGACGAGGAGGAGGUUUAUCGAAUUUUAGGCGGAGGCCUCCAAA` is -4.29
